Tested on: Mus musculus
protocol: Toxicity in normal mouse assessed as reduction of body weight at 50 mg/kg, iv for continuous 5 days
conditionsUsed: in vivo, 120 h
readoutKind: Activity

smilesentry=O=C(Nc1cc(-c2cccc(NS(=O)(=O)c3ccccc3)c2)n[nH]1)c1ccc(OCCN2CCCC2)cc1 readoutkind=Activity observed=Toxic
smilesentry=CN1CCN(c2ccc(C(=O)Nc3cc(-c4cccc(NS(=O)(=O)c5ccccc5)c4)n[nH]3)cc2)CC1 readoutkind=Activity observed=Toxic
smilesentry=Cc1cccc(S(=O)(=O)Nc2cccc(-c3cc(NC(=O)c4ccc(N5CCN(C)CC5)cc4)[nH]n3)c2)c1 readoutkind=Activity observed=Toxic

====

assaySystem: Vascular endothelial growth factor receptor 1 (Homo sapiens, UniProt P17948)
Sequence (P17948 whole entry): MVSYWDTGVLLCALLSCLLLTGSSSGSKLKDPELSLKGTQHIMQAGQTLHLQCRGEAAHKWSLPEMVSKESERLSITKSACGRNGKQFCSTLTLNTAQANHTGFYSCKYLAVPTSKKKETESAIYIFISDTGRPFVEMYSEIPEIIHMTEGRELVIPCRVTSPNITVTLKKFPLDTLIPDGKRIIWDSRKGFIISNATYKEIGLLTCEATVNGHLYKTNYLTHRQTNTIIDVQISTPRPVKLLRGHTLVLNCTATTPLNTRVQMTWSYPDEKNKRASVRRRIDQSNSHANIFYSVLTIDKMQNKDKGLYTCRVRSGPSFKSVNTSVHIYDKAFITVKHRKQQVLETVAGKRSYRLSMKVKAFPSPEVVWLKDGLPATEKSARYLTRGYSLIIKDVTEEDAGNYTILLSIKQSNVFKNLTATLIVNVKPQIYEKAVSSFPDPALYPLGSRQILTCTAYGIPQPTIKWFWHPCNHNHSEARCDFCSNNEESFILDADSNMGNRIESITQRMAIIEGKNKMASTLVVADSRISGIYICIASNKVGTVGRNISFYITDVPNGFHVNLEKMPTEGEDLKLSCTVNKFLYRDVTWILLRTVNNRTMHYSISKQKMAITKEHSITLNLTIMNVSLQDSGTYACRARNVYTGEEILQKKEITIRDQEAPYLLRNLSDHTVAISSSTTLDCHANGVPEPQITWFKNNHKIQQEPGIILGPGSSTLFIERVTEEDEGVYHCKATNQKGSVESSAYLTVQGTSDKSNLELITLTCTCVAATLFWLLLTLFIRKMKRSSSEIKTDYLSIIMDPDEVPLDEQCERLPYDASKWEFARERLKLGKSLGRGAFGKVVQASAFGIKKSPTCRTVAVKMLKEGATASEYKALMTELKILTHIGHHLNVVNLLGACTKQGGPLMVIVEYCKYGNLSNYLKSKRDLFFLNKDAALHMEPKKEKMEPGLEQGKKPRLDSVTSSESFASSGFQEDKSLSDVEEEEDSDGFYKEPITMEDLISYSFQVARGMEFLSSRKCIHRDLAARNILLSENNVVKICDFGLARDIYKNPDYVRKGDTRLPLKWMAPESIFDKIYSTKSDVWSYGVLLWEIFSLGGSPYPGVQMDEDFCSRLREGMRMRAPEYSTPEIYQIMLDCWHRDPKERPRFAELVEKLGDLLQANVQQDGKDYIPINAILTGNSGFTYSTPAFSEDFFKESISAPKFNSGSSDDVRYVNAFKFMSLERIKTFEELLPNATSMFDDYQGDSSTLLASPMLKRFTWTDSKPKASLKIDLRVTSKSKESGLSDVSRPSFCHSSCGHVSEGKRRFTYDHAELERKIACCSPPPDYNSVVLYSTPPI
protocol: Inhibition of recombinant GST-tagged VEGFR1 expressed in Sf9 insect cells after 120 mins by Kinase-Glo assay
pIC50: −log10 of the molar value.
readoutKind: pIC50

smilesentry=CCCS(=O)(=O)Nc1cccc(-c2cc(NC(=O)c3ccc(N4CCN(C)CC4)cc3)[nH]n2)c1 observed=5.58
smilesentry=Cc1nc(Nc2cc(-c3cccc(NS(=O)(=O)c4ccccc4)c3)n[nH]2)cc(N2CCN(C)CC2)n1 observed=6.51
smilesentry=CN1CCN(c2cccc(C(=O)Nc3cc(-c4cccc(NS(=O)(=O)c5ccccc5)c4)n[nH]3)c2)CC1 observed="< 6.00"
smilesentry=CN1CCN(c2ccc(C(=O)Nc3cc(-c4cccc(NS(=O)(=O)c5cccc(Cl)c5)c4)n[nH]3)cc2)CC1 observed=7.40
smilesentry=CCCCS(=O)(=O)Nc1cccc(-c2cc(Nc3cc(N4CCN(C)CC4)nc(C)n3)[nH]n2)c1 observed="< 6.00"
smilesentry=Cc1cccc(S(=O)(=O)Nc2cccc(-c3cc(Nc4cc(N5CCN(C)CC5)nc(C)n4)[nH]n3)c2)c1 observed="< 6.00"
smilesentry=Cc1ccc(S(=O)(=O)Nc2cccc(-c3cc(NC(=O)c4ccc(N5CCN(C)CC5)cc4)[nH]n3)c2)cc1 observed="< 6.00"
smilesentry=Cc1nc(NCCCN2CCOCC2)cc(Nc2cc(-c3cccc(NS(=O)(=O)c4ccccc4)c3)n[nH]2)n1 observed="< 6.00"

====

protocol: Half life in Sprague-Dawley rat at 5 mg/kg, iv and 20 mg/kg, po
Format: ADME, organism-based
conditionsUsed: in vivo
readoutKind: half-life (h)

smilesentry=Cc1nc(Nc2cc(-c3cccc(NS(=O)(=O)c4ccccc4)c3)n[nH]2)cc(N2CCN(C)CC2)n1 scaleunit=h observed=4.2

====

assaySystem: UniProtKB P35968
Sequence (P35968 whole entry): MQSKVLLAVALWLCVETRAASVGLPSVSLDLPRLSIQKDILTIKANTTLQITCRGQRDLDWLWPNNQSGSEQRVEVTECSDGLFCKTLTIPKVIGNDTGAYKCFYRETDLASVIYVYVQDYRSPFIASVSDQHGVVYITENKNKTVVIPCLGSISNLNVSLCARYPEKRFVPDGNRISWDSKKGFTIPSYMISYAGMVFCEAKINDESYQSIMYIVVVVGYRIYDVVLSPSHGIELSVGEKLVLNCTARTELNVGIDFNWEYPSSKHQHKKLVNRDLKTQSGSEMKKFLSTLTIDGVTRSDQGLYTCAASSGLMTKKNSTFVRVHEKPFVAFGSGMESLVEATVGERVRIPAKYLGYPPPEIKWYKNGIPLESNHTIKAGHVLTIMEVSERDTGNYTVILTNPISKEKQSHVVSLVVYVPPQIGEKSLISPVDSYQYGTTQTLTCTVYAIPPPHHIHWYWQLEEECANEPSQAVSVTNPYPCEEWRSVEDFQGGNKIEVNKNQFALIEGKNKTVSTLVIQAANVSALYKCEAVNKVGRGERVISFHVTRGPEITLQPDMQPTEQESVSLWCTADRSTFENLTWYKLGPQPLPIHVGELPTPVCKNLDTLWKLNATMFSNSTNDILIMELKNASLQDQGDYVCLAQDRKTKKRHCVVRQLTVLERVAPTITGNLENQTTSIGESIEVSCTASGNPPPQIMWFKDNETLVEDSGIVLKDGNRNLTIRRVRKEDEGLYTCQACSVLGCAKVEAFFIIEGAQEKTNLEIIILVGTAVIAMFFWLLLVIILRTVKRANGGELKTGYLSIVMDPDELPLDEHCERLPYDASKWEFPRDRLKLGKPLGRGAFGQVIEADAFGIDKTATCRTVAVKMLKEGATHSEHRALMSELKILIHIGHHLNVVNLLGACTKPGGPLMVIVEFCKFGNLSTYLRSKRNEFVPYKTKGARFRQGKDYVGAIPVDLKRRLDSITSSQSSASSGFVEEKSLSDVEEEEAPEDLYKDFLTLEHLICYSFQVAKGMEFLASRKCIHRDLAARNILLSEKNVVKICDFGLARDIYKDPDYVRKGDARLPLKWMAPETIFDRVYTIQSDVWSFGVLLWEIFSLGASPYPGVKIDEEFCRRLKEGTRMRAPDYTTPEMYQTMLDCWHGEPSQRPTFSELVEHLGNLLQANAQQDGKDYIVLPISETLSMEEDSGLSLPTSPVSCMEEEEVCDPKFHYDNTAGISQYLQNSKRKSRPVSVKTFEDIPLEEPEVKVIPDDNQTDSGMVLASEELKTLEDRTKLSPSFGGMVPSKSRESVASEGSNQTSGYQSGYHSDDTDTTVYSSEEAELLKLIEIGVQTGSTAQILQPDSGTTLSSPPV
protocol: Inhibition of recombinant GST-tagged VEGFR2 expressed in Sf9 insect cells after 120 mins by Kinase-Glo assay
readoutKind: IC50 (nM)

smilesentry=Cc1nc(Nc2cc(-c3cccc(NS(=O)(=O)c4ccccc4)c3)n[nH]2)cc(N2CCN(C)CC2)n1 comparisonsymbol== observed=290
smilesentry=Cc1cccc(S(=O)(=O)Nc2cccc(-c3cc(Nc4cc(N5CCN(C)CC5)nc(C)n4)[nH]n3)c2)c1 comparisonsymbol=> observed=1000
smilesentry=Cc1nc(Nc2cc(-c3cccc(NS(=O)(=O)c4ccccc4)c3)n[nH]2)cc(N2CCC(O)CC2)n1 comparisonsymbol=> observed=1000
smilesentry=O=C(Nc1cc(-c2cccc(NS(=O)(=O)c3ccccc3)c2)n[nH]1)c1ccc(OCCN2CCOCC2)cc1 comparisonsymbol=> observed=1000
smilesentry=O=C(Nc1cc(-c2cccc(NS(=O)(=O)c3ccccc3)c2)n[nH]1)c1ccc(N2CCOCC2)cc1 comparisonsymbol== observed=450
smilesentry=O=C(Nc1cc(-c2cccc(NS(=O)(=O)c3ccccc3)c2)n[nH]1)c1ccc(CN2CCOCC2)cc1 comparisonsymbol== observed=560
smilesentry=Cc1cccc(S(=O)(=O)Nc2cccc(-c3cc(NC(=O)c4ccc(N5CCN(C)CC5)cc4)[nH]n3)c2)c1 comparisonsymbol== observed=70
smilesentry=COc1ccc(S(=O)(=O)Nc2cccc(-c3cc(NC(=O)c4ccc(N5CCN(C)CC5)cc4)[nH]n3)c2)cc1 comparisonsymbol== observed=160
